- Target Entity: PIK3CG (UniProt P48736)
- Sequence (P48736 whole entry, looked up): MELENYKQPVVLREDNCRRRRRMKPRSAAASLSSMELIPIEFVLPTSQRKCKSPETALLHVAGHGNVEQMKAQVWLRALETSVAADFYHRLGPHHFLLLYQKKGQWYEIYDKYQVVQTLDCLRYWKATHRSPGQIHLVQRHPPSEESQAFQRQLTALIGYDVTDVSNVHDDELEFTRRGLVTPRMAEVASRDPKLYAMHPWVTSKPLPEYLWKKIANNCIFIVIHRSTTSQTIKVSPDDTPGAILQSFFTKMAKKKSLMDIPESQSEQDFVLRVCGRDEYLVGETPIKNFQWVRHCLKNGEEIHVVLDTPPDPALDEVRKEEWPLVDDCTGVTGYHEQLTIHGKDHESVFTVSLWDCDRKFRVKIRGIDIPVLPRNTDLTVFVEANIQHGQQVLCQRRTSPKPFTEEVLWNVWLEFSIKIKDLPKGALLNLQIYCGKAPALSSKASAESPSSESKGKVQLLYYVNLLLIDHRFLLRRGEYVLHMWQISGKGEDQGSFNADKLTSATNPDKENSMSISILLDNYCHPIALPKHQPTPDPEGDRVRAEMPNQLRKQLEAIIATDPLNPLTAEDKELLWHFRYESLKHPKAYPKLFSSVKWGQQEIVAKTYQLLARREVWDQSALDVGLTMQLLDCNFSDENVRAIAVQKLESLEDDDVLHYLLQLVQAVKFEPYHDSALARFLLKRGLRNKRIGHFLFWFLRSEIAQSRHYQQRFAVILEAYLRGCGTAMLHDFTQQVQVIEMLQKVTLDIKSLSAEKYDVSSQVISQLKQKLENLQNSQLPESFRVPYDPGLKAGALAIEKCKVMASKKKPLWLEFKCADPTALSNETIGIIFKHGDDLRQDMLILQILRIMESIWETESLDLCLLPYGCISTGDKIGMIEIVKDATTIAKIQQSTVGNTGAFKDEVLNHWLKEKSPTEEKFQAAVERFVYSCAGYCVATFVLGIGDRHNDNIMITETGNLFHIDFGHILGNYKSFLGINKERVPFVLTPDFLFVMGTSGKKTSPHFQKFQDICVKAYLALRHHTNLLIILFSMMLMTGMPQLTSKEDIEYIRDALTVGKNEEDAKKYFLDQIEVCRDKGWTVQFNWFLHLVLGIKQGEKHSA
pIC50: −log10 of the molar value.
Property: pIC50

The following molecules have reported results that may help.
Smiles Input	pIC50
CCN1C(=O)COc2ccc(C=C3SC(=S)NC3=O)cc21	7.38
CC(C)(C)c1cc(CN2C(=O)COc3c(F)cc(C=C4SC(=S)NC4=O)cc32)cc(C(C)(C)O)c1	8.30
CC(C)(C)c1cc(O)cc(CN2C(=O)COc3ccc(C=C4SC(=S)NC4=O)cc32)c1	7.66

[P] CC(C)(C)c1cc(C(C)(C)C)nc(CN2C(=O)COc3c(F)cc(C=C4SC(=S)NC4=O)cc32)n1
[Q] CCOC(=O)N1CCC(Cc2ccc(CN3C(=O)COc4ccc(C=C5SC(=O)NC5=O)cc43)cc2)CC1
[R] O=C1NC(=S)SC1=Cc1cc(F)c2c(c1)N(Cc1ccc(F)c(Cl)c1)C(=O)CO2
Challenge: Order the records by pIC50, with each subsequent value no larger than the one before. Answer format: the labels, ordered as requested.
Response given: R, Q, P
